# Experimental Protocol: Artificial lipid membrane permeability measurement (96-well filter plate, absorbance)
# Type: in vitro ADME
# Design: unit: cm/s
# Measurement Setup: membrane of Example 2 (phosphatidylcholine 0.75, phosphatidylethanolamine 0.75, phosphatidylserine 0.25, phosphatidylinositol 0.25, cholesterol 1 %, w/w in 1,7-octadiene); pH 6.5; 0.5 mmol/L sample
Kindly supply the reported Permeability coefficient (P), Example 2 values for the records listed here.
Numbers only.

INSERT INTO assay_data (compound, experimental_endpoint, observed) VALUES
  ('NS(=O)(=O)c1cc2c(cc1Cl)N=CNS2(=O)=O [Chlorothiazide]', 'Permeability coefficient (P), Example 2', '2.71E-07'),
  ('CC(=O)Nc1ccc(OCC(O)CNC(C)C)cc1 (centres unmarked)', 'Permeability coefficient (P), Example 2', '1.53E-06'),
  ('N=C(N)NC(=O)c1nc(Cl)c(N)nc1N [Amiloride]', 'Permeability coefficient (P), Example 2', '6.73E-07'),
  ('CC[C@H](C)C(=O)O[C@H]1C[C@H](O)C=C2C=C[C@H](C)[C@H](CC[C@@H](O)C[C@@H](O)CC(=O)O)[C@H]21', 'Permeability coefficient (P), Example 2', '6.12E-07'),
  ('CNC(=C[N+](=O)[O-])NCCSCc1ccc(CN(C)C)o1', 'Permeability coefficient (P), Example 2', '2.19E-06'),
  ('CCN1CCCC1CNC(=O)c1cc(S(N)(=O)=O)ccc1OC (centres unmarked) [Sulpiride]', 'Permeability coefficient (P), Example 2', '2.23E-06'),
  ('C[C@H]1c2cccc(O)c2C(=O)C2=C(O)[C@]3(O)C(=O)C(C(N)=O)=C(O)[C@@H](N(C)C)[C@@H]3[C@@H](O)[C@@H]21', 'Permeability coefficient (P), Example 2', '2.35E-05'),
  ('COCCc1ccc(OCC(O)CNC(C)C)cc1 (centres unmarked)', 'Permeability coefficient (P), Example 2', '6.88E-06'),
  ('O=C1CC[C@@]2(O)[C@H]3Cc4ccc(O)c5c4[C@@]2(CCN3CC2CC2)[C@H]1O5 [Naltrexone]', 'Permeability coefficient (P), Example 2', '4.50E-06'),
  ('CC(C)NCC(O)COc1cccc2[nH]ccc12 (centres unmarked)', 'Permeability coefficient (P), Example 2', '7.94E-06');

For each of the compounds below, note its Permeability coefficient (P), Example 2.
1. CCCC(=O)Nc1ccc(OCC(O)CNC(C)C)c(C(C)=O)c1 (centres unmarked)
2. CC(C)(C)NC[C@H](O)COc1nsnc1N1CCOCC1
3. CO/N=C(\C(=O)N[C@@H]1C(=O)N2C(C(=O)O)=C(CSc3nc(=O)c(=O)[nH]n3C)CS[C@H]12)c1csc(N)n1
4. CN(C)[C@@H]1C(O)=C(C(N)=O)C(=O)[C@@]2(O)C(O)=C3C(=O)c4c(O)cccc4[C@@](C)(O)[C@H]3[C@H](O)[C@@H]12
5. O=C(O)c1cc(/N=N/c2ccc(S(=O)(=O)Nc3ccccn3)cc2)ccc1O

3.67E-06
1.19E-05
2.25E-07
5.87E-06
1.07E-06

For each of the compounds below, note its Permeability coefficient (P), Example 2.
1. CC(=O)Nc1ccc(O)cc1
2. N=C(N)N/N=C/c1c(Cl)cccc1Cl

1. 1.79E-06
2. 1.04E-05

----------
Kindly supply the reported Papp at 0.5 mmol/L values for the records listed here.
# Experimental Protocol: Artificial lipid membrane permeability measurement (96-well filter plate, absorbance)
# Assay type: in vitro ADME
# Measurement Setup: PAMPA, membrane of Example 4 (phosphatidylcholine and 1,7-octadiene 2:98); buffer pH 6.5 to pH 7.0; 0.5 mmol/L sample; read-out: Permeability coefficient (P), Example 4
Phrase the answer as number then unit, nothing more needed.

# count of solved cases: 2
INSERT INTO assay_data (compound, experimental_endpoint, observed) VALUES
  ('CC(C(=O)O)c1cccc(C(=O)c2ccccc2)c1 (stereo not drawn) [Ketoprofen]', 'Papp at 0.5 mmol/L', '13.6 ×10⁻⁶ cm/s'),
  ('CC(C)NCC(O)COc1cccc2ccccc12 (stereo not drawn) [Propranolol]', 'Papp at 0.5 mmol/L', '21.5 ×10⁻⁶ cm/s');

Returns the measured Papp at 0.5 mmol/L for the input compound. Input: NS(=O)(=O)c1cc2c(cc1Cl)NCNS2(=O)=O [Hydrochlorothiazide]
1.52 ×10⁻⁶ cm/s

----------
# Experimental Protocol: Artificial lipid membrane permeability measurement (96-well filter plate, absorbance)
# Type: in vitro ADME
# Measurement Setup: PAMPA; membrane of Example 2 (phosphatidylcholine 0.75, phosphatidylethanolamine 0.75, phosphatidylserine 0.25, phosphatidylinositol 0.25, cholesterol 1 %, w/w in 1,7-octadiene); pH 6.5; 0.5 mmol/L sample; read-out: Permeability coefficient (P), Example 2
Experimental Endpoint: Papp at 0.5 mmol/L (×10⁻⁶ cm/s)
One number for each entry, in ×10⁻⁶ cm/s.

# count of solved cases: 3
INSERT INTO measurements (molecule, observed) VALUES
  ('NS(=O)(=O)c1cc2c(cc1Cl)NCNS2(=O)=O [Hydrochlorothiazide]', 1.55),
  ('CO/N=C(\C(=O)N[C@@H]1C(=O)N2C(C(=O)O)=C(COC(N)=O)CS[C@H]12)c1ccco1', 0.0443),
  ('CCOC(=O)[C@H](CCc1ccccc1)N[C@@H](C)C(=O)N1CCC[C@H]1C(=O)O', 1.37);

Returns the measured Papp at 0.5 mmol/L for the input molecule. Input: "Nc1ccn([C@@H]2O[C@H](CO)[C@@H](O)[C@@H]2O)c(=O)n1"
0.0387

----------
Kindly supply the reported Papp at 0.5 mmol/L values for the records listed here.
# Experimental Protocol: Artificial lipid membrane permeability measurement (96-well filter plate, absorbance)
# Format: in vitro ADME
# Measurement Setup: PAMPA; membrane of Comparative Example 2 (phosphatidylcholine and 1,9-decadiene 2:98); buffer pH 6.5 to pH 7.0; 0.5 mmol/L sample; read-out: Permeability coefficient (P), Comparative Example 2
Phrase the answer as number then unit, nothing more needed.

# count of solved cases: 2
INSERT INTO results (compound, observed) VALUES
  ('NS(=O)(=O)c1cc2c(cc1Cl)NCNS2(=O)=O [Hydrochlorothiazide]', '0.751 ×10⁻⁶ cm/s'),
  ('CC(C(=O)O)c1cccc(C(=O)c2ccccc2)c1 (stereo not drawn)', '9.22 ×10⁻⁶ cm/s');

Returns the measured Papp at 0.5 mmol/L for the input compound. Input: CC(C)NCC(O)COc1cccc2ccccc12 (stereo not drawn)
12.5 ×10⁻⁶ cm/s

----------
Kindly supply the reported Papp at 0.5 mmol/L values for the records listed here.
# Experimental Protocol: Artificial lipid membrane permeability measurement (96-well filter plate, absorbance)
# Format: in vitro ADME
# Measurement Setup: PAMPA; membrane of Example 1 (phosphatidylcholine 2, cholesterol 1, stearic acid 0.2 %, w/w in 1,7-octadiene); pH 7.0; 0.5 mmol/L sample; read-out: Permeability coefficient (P), Example 1
One number for each entry, in ×10⁻⁶ cm/s.

INSERT INTO assay_data (compound, observed) VALUES
  ('CCN1CCCC1CNC(=O)c1cc(S(N)(=O)=O)ccc1OC (stereo not shown) [Sulpiride]', 1.34),
  ('NS(=O)(=O)c1cc2c(cc1Cl)N=CNS2(=O)=O [Chlorothiazide]', 2.24),
  ('CCOC(=O)[C@H](CCc1ccccc1)N[C@@H](C)C(=O)N1CCC[C@H]1C(=O)O', 0.802),
  ('O=C1CC[C@@]2(O)[C@H]3Cc4ccc(O)c5c4[C@@]2(CCN3CC2CC2)[C@H]1O5 [Naltrexone]', 11.2),
  ('Nc1ccn([C@@H]2O[C@H](CO)[C@@H](O)[C@@H]2O)c(=O)n1', 0.889);

For each of the compounds below, note its Papp at 0.5 mmol/L.
1. CC(=O)Nc1ccc(OCC(O)CNC(C)C)cc1 (stereo not shown)
2. C[C@H]1c2cccc(O)c2C(=O)C2=C(O)[C@]3(O)C(=O)C(C(N)=O)=C(O)[C@@H](N(C)C)[C@@H]3[C@@H](O)[C@@H]21
3. COCCc1ccc(OCC(O)CNC(C)C)cc1 (stereo not shown)
4. CO/N=C(\C(=O)N[C@@H]1C(=O)N2C(C(=O)O)=C(COC(N)=O)CS[C@H]12)c1ccco1
5. CC[C@H](C)C(=O)O[C@H]1C[C@H](O)C=C2C=C[C@H](C)[C@H](CC[C@@H](O)C[C@@H](O)CC(=O)O)[C@H]21
6. N=C(N)N/N=C/c1c(Cl)cccc1Cl

1: 1.01; 2: 7.07; 3: 9.42; 4: 0.16; 5: 2.69; 6: 19.5

----------
Kindly supply the reported Papp at 0.5 mmol/L values for the records listed here.
# Experimental Protocol: Artificial lipid membrane permeability measurement (96-well filter plate, absorbance)
# Format: in vitro ADME
# Measurement Setup: PAMPA, membrane of Example 3 (phosphatidylcholine and 1,6-heptadiene 2:98); buffer pH 6.5 to pH 7.0; 0.5 mmol/L sample; read-out: Permeability coefficient (P), Example 3
Numbers only, in ×10⁻⁶ cm/s.

# count of solved cases: 2
INSERT INTO results (compound, experimental_endpoint, readout_unit, observed) VALUES
  ('NS(=O)(=O)c1cc2c(cc1Cl)NCNS2(=O)=O [Hydrochlorothiazide]', 'Papp at 0.5 mmol/L', '×10⁻⁶ cm/s', 5.86),
  ('CC(C(=O)O)c1cccc(C(=O)c2ccccc2)c1 (stereo not drawn) [Ketoprofen]', 'Papp at 0.5 mmol/L', '×10⁻⁶ cm/s', 50.5);

Returns the measured Papp at 0.5 mmol/L for the input compound. Input: CC(C)NCC(O)COc1cccc2ccccc12 (stereo not drawn) [Propranolol]
43.8

Hey, just so you know, these numbers are from patent US6861260B2.
